Entries and their composite z-score values follow.
- ASSAY OVERVIEW: small molecules captured by biotinylated probe aFGF2 – biochemical, small-molecule microarray, fluorescence 635/667, stem cell growth factor project, primary screen (AID 1067);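 note: measures binding of biotinylated aFGF2 protein to printed compounds on slides; z-score merges feature fluorescence and signal-to-noise across triplicate slides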
- CONDITIONS: higher = more signal

{"COMPOUND": "COc1ccc(C(=O)Nc2cccc(CN3C(=O)[C@]4(O[C@H](CCn5cc(CCO)nn5)[C@@H]([Si](C)(C)c5ccc(OC)cc5)[C@@H]4C)c4ccccc43)c2)cc1", "composite z-score": -0.116}
{"COMPOUND": "[N-]=[N+]=NCc1ccccc1[C@@H]1OC(c2ccc(OCCCO)cc2)=N[C@]1(CCS(=O)(=O)c1ccccc1)C(=O)N1CCOCC1", "composite z-score": 0.0332}
{"COMPOUND": "CS(=O)(=O)CCOC(=O)C1=CC(CCCO)=CC(C2CC2)N(Cc2cc3c(cc2Br)OCO3)C=C1C(=O)OCCS(C)(=O)=O (stereo not drawn)", "composite z-score": -0.0752}
{"COMPOUND": "CO[C@H]1O[C@H](CO)[C@@H](OC(=O)Nc2ccc(Oc3ccccc3)cc2)[C@H](OC(=O)Nc2ccc3c(c2)OCO3)[C@@H]1OC(=O)Nc1ccc2c(c1)OCO2", "composite z-score": -0.0493}
{"COMPOUND": "C#CCNCc1ccccc1", "composite z-score": -0.114}
{"COMPOUND": "C=CCNC(=O)[C@H]1[C@@H]2C(=O)O[C@@H](c3ccccc3)[C@@H](c3ccccc3)N2[C@@H](c2ccc(OCCO)cc2)[C@]12C(=O)Nc1ccc(C#CCC(C(=O)OC)C(=O)OC)cc12", "composite z-score": 0.0501}
{"COMPOUND": "C=CCC(OC(C)=O)[C@@H]1[C@@H](N(Cc2ccc(-c3ccccc3)cc2)C(=O)Cc2ccc(F)cc2)c2cc(OCCCO)ccc2N1C(=O)c1ccc2ccccc2c1 (stereo partly drawn)", "composite z-score": -0.0222}
{"COMPOUND": "[N-]=[N+]=Nc1ccccc1C[C@]1(C(=O)N2CCCCC2)COC(c2ccc(OCCCO)cc2)=N1", "composite z-score": 0.0605}
{"COMPOUND": "COCCOC(=O)N1C(=O)[C@@]2(c3cc(C#CCCO)ccc31)[C@H](c1ccc(O)cc1)N1[C@H](c3ccccc3)[C@H](c3ccccc3)OC(=O)[C@H]1[C@@H]2C(=O)N1CCN(c2ncccn2)CC1", "composite z-score": 0.005}
{"COMPOUND": "C#CCOc1ccc(C[C@@H](C(=O)OC)N(CC#C)[C@@H](/C=C/C2CC2)[C@H](O)Cc2ccccc2)cc1", "composite z-score": -0.198}
{"COMPOUND": "O=C1O[C@@H](c2ccccc2)[C@@H](c2ccccc2)N2[C@@H](c3ccccc3OCCO)[C@]3(C(=O)Nc4ccc(C#CC5(O)CCCCCC5)cc43)[C@@H](C(=O)N3CCN(c4ncccn4)CC3)[C@H]12", "composite z-score": 0.0182}
{"COMPOUND": "C=CC[C@@]1(C(=O)N2CCCCC2)N=C(c2ccc(OCCCO)cc2)O[C@@H]1c1ccccc1N=[N+]=[N-]", "composite z-score": -0.0198}
{"COMPOUND": "O=C1C2C=CC(C(O)C=Cc3ccc([N+](=O)[O-])cc3)N(n3cnnc3)C2C(=O)N1Cc1ccccc1 (stereo not drawn)", "composite z-score": 0.0575}
